tested on: ECa-109 cell line; experiment: Induction of apoptosis in human Eca-109 cells assessed as necrotic cells at 4 uM irradiated with 8 J/cm2 650 nm laser light and measured after 4 hrs by Annexin V-FITC/PI staining based flow cytometry analysis (reference value: 0.73%); format: functional
measured-metric: Activity (%)
Kindly provide the numeric value in % only, without the unit symbol.

[[record]]
smiles_text = "OCCOc1ccc(-c2c3nc(c(-c4ccc(OCCO)c(F)c4)c4[nH]c(c(-c5ccc(OCCO)c(F)c5)c5nc(c(-c6ccc(OCCO)c(F)c6)c6[nH]c2c2ccccc62)-c2ccccc2-5)c2ccccc42)-c2ccccc2-3)cc1F"
output_unit = "%"
assay_value = 17.1

[[record]]
smiles_text = "Oc1ccc(-c2c3nc(c(-c4ccc(O)c(F)c4)c4[nH]c(c(-c5ccc(O)c(F)c5)c5nc(c(-c6ccc(O)c(F)c6)c6[nH]c2c2ccccc62)-c2ccccc2-5)c2ccccc42)-c2ccccc2-3)cc1F"
output_unit = "%"
assay_value = 42.1

[[record]]
smiles_text = "OCCCOc1ccc(-c2c3nc(c(-c4ccc(OCCCO)cc4)c4[nH]c(c(-c5ccc(OCCCO)cc5)c5nc(c(-c6ccc(OCCCO)cc6)c6[nH]c2c2ccccc62)-c2ccccc2-5)c2ccccc42)-c2ccccc2-3)cc1"
output_unit = "%"
assay_value = 19.5

[[record]]
smiles_text = "COc1ccc(-c2c3nc(c(-c4ccc(OC)c(O)c4)c4[nH]c(c(-c5ccc(OC)c(O)c5)c5nc(c(-c6ccc(OC)c(O)c6)c6[nH]c2c2ccccc62)-c2ccccc2-5)c2ccccc42)-c2ccccc2-3)cc1O"
output_unit = "%"
assay_value = 19.4


# evaluate next
Returns the measured Activity for the input compound. Input: `OCCOc1ccc(-c2c3nc(c(-c4ccc(OCCO)cc4F)c4[nH]c(c(-c5ccc(OCCO)cc5F)c5nc(c(-c6ccc(OCCO)cc6F)c6[nH]c2c2ccccc62)-c2ccccc2-5)c2ccccc42)-c2ccccc2-3)c(F)c1` 13.1
